Target: furin, P09958;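 note: purified furin at 1:10 enzyme:substrate in 50 mM HEPES pH 7.5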
Sequence (P09958 whole entry): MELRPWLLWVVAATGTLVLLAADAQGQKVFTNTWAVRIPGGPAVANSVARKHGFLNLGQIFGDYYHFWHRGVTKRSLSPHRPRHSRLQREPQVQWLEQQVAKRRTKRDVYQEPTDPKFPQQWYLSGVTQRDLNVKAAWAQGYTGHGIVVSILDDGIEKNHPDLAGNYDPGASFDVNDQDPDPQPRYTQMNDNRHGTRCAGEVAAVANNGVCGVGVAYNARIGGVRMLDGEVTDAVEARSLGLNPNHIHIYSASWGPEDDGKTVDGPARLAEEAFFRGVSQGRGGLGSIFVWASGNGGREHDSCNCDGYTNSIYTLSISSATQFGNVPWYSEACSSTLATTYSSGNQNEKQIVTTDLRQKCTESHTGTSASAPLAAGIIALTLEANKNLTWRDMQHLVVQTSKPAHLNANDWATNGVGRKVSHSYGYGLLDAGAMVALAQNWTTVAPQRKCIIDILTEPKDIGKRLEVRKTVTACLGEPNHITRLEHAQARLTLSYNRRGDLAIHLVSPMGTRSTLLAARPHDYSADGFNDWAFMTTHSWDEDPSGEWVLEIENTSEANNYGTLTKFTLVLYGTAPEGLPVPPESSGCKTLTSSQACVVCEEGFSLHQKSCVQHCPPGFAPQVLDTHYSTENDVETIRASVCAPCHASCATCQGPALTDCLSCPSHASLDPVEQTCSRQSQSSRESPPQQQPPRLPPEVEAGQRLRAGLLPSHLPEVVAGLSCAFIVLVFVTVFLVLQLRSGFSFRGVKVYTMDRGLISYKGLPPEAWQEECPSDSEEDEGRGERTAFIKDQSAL
Assay: furin cleavage Z-score vs untreated control; higher = more cleavage, active = 3.5 or more, inactive = 1 or less, 8 variable residues between constant flanks
Details: 7.5 min
This is one part of the list. No count for the full screen is at hand.
Field: furin cleavage Z-score. Provide a value for each of the sequences that follow.
Note: the reply should be a number with no unit written.

Exercise: Name the reported furin cleavage Z-score value associated with the sequence CACGKYLFNWAGNASASA [HC1631]
Key: -0.792

Exercise: Another sequence to look at: CARRKRSAALAGNASASA [FS-2371]
Key: 10.8

Exercise: Another sequence to look at: CARRKRSAGAAGNASASA [FS-1779]
Key: 11.3

Exercise: Another sequence to look at: CARRGRSGGAAGNASASA [FS-2227]
Key: -0.325

Exercise: Another sequence to look at: CATTFCSGSWAGNASASA [HC1867]
Key: 0.273

Exercise: Another sequence to look at: CARKNRPAGAAGNASASA [FS-1729]
Key: -0.275

Exercise: Another sequence to look at: CARAQRSAGAAGNASASA [FS-1994]
Key: 0.322

Data origin, for the record: the supplement of paper PMC3545927
